target_of_assay: T1, PD-L1-hFc (human, UniProt Q9NZQ7 19-238)
T1 construct: extracellular domain; Made in HEK-293F cells, protein A purified; also called PD-L1 antigen; PD-L1 protein
protocol_text: kinetics on PD-L1-hFc (legend paragraph 40; text names ProteOn XPR36, the sheet's sensorgrams have a nm axis)
Record form. Attribute: kon. Fill in for each entry.
Please format your answer as a value with the unit trailing.

Consider the worked cases shown below.
{"binder": "PDL1-16E12 (LS/4F5) (antibody, V domains shown, also called 16E12(4F5); 16E12-4F5) VH: QMQLVQSGAEVKKPGSSVKVSCKASGGTFSSYAISWVRQAPGQGLEWMGRIIPILGIANYAQKFQGRVTITADKSTSTAYMELSSLRSEDTAVYYCAKPRDGYNLVAFDIWGQGTMVTVSS VL: QLVLTQPPSVSGAPGQRVTISCTGSSSNIGAGYDVHWYQQLPGAAPKLLIYGDINRPSGVPDRFSGSKSGISASLAITGLQAEDEADYYCQSYDSSLSGGVFGGGTKLTVL", "kon": "256000 M⁻¹ s⁻¹"}
{"binder": "PDL1-16E12 (LS/4H5) (antibody, V domains shown, also called PD-L1-16E12-4H5) VH: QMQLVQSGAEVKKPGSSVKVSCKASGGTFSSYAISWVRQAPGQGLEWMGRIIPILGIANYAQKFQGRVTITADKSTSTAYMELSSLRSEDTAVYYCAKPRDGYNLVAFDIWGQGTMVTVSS VL: QLVLTQPPSVSGAPGQRVTISCTGSSSNIGAGYDVHWYQQLPGTAPKLLIYGNSNRPSGVPDRFSGSKSGTSASLAITGLQAEDEADYYCQSYDSSLSGGVFGGGTKLTVL", "kon": "226000 M⁻¹ s⁻¹"}
{"binder": "PDL1-16E12 (LS/4C9) (antibody, V domains shown, also called PD-L1-16E12-4C9) VH: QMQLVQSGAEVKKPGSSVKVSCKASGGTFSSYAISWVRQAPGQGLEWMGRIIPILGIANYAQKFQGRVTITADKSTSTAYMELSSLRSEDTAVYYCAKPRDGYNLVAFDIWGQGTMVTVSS VL: QLVLTQPPSVSGAPGQRVTISCTGGSSNIGAGYDVHWYQQLPGTAPKLLLFGNTNRPSGVPGRFSGSKSGSSASLAITGLQSDDEADYYCQSYDSSLGGSVIGTGTKVTVL", "kon": "166000 M⁻¹ s⁻¹"}
{"binder": "PD-L1-16E12 (WT/kappa) (antibody, V domains shown, also called PD-L1-16E12-Kappa) VH: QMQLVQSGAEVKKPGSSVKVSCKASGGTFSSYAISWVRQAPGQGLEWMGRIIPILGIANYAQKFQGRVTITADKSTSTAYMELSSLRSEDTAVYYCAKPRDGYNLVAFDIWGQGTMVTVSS VL: QLVLTQPPSVSGAPGQTVTISCTGSSSNIGAGYDVHWYQQLPGTAPKLLIYGNNNRPSGVPDRFSGSKSGALASLAITGLQAEDGADYHCQSYDNSLSAHAVFGTGTKVTVL", "kon": "268000 M⁻¹ s⁻¹"}

Next:
Asked: State its kon for this binder: PDL1-16E12 (LS/4A11) (antibody, V domains shown, also called PD-L1-16E12-4A11) VH: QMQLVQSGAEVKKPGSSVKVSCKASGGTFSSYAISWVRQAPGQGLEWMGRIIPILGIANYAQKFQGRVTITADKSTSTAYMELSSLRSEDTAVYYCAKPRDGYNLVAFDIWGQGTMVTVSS VL: QLVLTQPPSVSGAPGQRVIISCTGSSSNIGAGYDVHWYQQVPGTAPKLLIYGNNHRPSGVPDRFSGSKSGTSASLAITGLQAEDETDYYCQSYDNRLSGSLFGGGTKLTVL
Given back: 160000 M⁻¹ s⁻¹

Values compiled from patent US20190322750A1.
